The measured values listed here are drawn from patent US20140045809A1.

Assay: Catalytic decomposition of peroxynitrite (PN), stopped-flow kinetics (Table 1)
Type: biochemical
experimental readout: kcat, catalytic rate constant for decomposition of PN (M⁻¹ s⁻¹)

molecule | value reported
O=S(=O)(O)c1cc2[n]3c1C(c1c(F)c(F)c(F)c(F)c1F)=C1C=CC4=[N+]1[Fe-]31[n]3c(cc(S(=O)(=O)O)c3-2)C(c2c(F)c(F)c(F)c(F)c2F)=c2ccc([n]21)=C4c1c(F)c(F)c(F)c(F)c1F (stereo not shown) | 2e+06
C[n+]1ccccc1C1=C2C=CC3=[N+]2[Mn-]24[n]5c1ccc5-c1ccc([n]12)C(c1cccc[n+]1C)=c1ccc([n]14)=C3c1cccc[n+]1C (stereo not shown) | 25000
C[n+]1ccc(C2=C3C=CC4=[N+]3[Mn-]35[n]6c2ccc6-c2ccc([n]23)C(c2cc[n+](C)cc2)=c2ccc([n]25)=C4c2c(F)c(F)c(F)c(F)c2F)cc1.[I-].[I-] (stereo not shown) | 400000
O=S(=O)(O)c1cc2[n]3c1C(c1c(F)c(F)c(F)c(F)c1F)=C1C=CC4=[N+]1[Mn-]31[n]3c(cc(S(=O)(=O)O)c3-2)C(c2c(F)c(F)c(F)c(F)c2F)=c2ccc([n]21)=C4c1c(F)c(F)c(F)c(F)c1F (stereo not shown) | 40000
